B1: ZNF263 (parent)
chain: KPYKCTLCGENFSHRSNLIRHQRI

Variants of: B1
EXPERIMENT: protein stability index of a GFP-peptide fusion (GPS, HEK-293T) (PSI 1-6); higher = more stable;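 further: lentivirally expressed fusions sorted by FACS into six bins by GFP to DsRed ratio, PSI derived from sequencing read proportions per bin multiplied by bin number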
COND: c terminus: a fixed tail appended
MEASURED PARAMETER: protein stability index
Numbers only.

QUERY SEQUENCE	MEASURED PARAMETER	RECORDED VALUE
KPYKCTLCGENFSHRSNLMRHQRI [I19M]	protein stability index	2.62
KPYKCTLCGENFSHSSNLIRHQRI [R15S]	protein stability index	1.38
KRYKCTLCGENFSHRSNLIRHQRI [P2R]	protein stability index	3.12
KPYKCTLCGEHFSHRSNLIRHQRI [N11H]	protein stability index	3.33
KPYKCTLCGENFSHRSHLIRHQRI [N17H]	protein stability index	3.64
KPYKCTLCGENFSHRHNLIRHQRI [S16H]	protein stability index	2.76
KPYKCTLCGLNFSHRSNLIRHQRI [E10L]	protein stability index	1.88
KPYKCTLCGENFSHRYNLIRHQRI [S16Y]	protein stability index	2.91
KPYKCTLCGENFSHRSNLIHHQRI [R20H]	protein stability index	1.76
KPYKCNLCGENFSHRSNLIRHQRI [T6N]	protein stability index	2.6

Pending variant:
Asked: Specify protein stability index for KPYKCTLCGENFSHWSNLIRHQRI [R15W] and stop.
Given back: 2.54
